The measurements presented in this section are drawn from ChEMBL document CHEMBL1149662.

- target or system: Melanocortin receptor 3 (Homo sapiens, UniProt P41968)
- Sequence (P41968 whole entry): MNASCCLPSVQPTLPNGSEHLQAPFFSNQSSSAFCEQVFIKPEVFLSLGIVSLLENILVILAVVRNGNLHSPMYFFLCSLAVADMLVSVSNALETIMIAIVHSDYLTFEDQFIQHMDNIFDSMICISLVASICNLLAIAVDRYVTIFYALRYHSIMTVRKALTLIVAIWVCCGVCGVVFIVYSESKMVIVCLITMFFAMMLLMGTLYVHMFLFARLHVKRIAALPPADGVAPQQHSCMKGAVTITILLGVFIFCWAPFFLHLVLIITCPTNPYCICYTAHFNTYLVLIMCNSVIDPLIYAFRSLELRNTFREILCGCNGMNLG
- run description: Displacement of [125I]NDP-MSH from human recombinant MC3 receptor expressed in Sf9 cells
measurement label: Ki (µM)

>>> assay_result("NCCCCCN(Cc1ccc2ccccc2c1)C(=O)CCCc1c[nH]c2ccccc12")
20
>>> assay_result("NCC1CCCC(CN(C/C(Cl)=C/c2ccccc2)C(=O)CCCc2c[nH]c3ccccc23)C1 (centres undefined)")
25
>>> assay_result("NCCCN(C/C=C/c1ccccc1)C(=O)Cc1c[nH]c2ccccc12")
21
>>> assay_result("N[C@H]1CC[C@H](N(Cc2ccccc2)C(=O)CCCc2c[nH]c3ccccc23)CC1")
50
>>> assay_result("CCOc1cc(CN(C(=O)CCCc2c(Cc3ccc(O)cc3)[nH]c3ccccc23)C2CCC(CC3CCC(N)CC3)CC2)ccc1OC (centres undefined)")
26
>>> assay_result("CC1CC(CC2CCC(N(Cc3ccccc3)C(=O)CCCc3c[nH]c4ccccc34)C(C)C2)CCC1N (stereo in doubt; form 3)")
6.6
>>> assay_result("NCCCCCN(Cc1ccccc1)C(=O)CCCc1c(Cc2ccc(O)cc2)[nH]c2ccccc12")
47

P. NCCCCCN(Cc1ccccc1)C(=O)[C@@H](N)Cc1c[nH]c2ccccc12
Q. NC1CCC(CC2CCC(N(Cc3c(F)cccc3F)C(=O)CCCc3c(Cc4ccc(O)cc4)[nH]c4ccccc34)CC2)CC1 (centres undefined)
Task: Could you kindly indicate whether P or Q has the higher Ki value? Indicate which entry you chose by stating its label.
Output: Q
(Q: 65 µM, P: 43 µM)
